Test system: Fibroblast
Experiment: Multiplex assay against human fibroblast
Format: toxicity, cell-based
Settings: 48 h, 10 µM, compound concentration 10 uM, replicate 2
YES means recorded Population Apoptotic (%) is 60% or above; NO means it is below 60%.

COMPOUND: COc1cc(OC2CCN(C(C)=O)CC2)ccc1C(=O)N1CCC(N2C(=O)OCc3ccccc32)CC1
LABEL_CLASS: NO
--
COMPOUND: CN1CCN2c3ccccc3Cc3ccccc3C2C1.Cl (configuration not stated) [MIANSERIN HYDROCHLORIDE]
LABEL_CLASS: NO
--
COMPOUND: O=C(Nc1cc(-c2ccccc2)nn1-c1ccccc1F)c1ccc([N+](=O)[O-])cc1
LABEL_CLASS: NO
--
COMPOUND: Cl.Cl.OCCOCCN1CCN(C(c2ccccc2)c2ccc(Cl)cc2)CC1 (configuration not stated) [HYDROXYZINE HYDROCHLORIDE]
LABEL_CLASS: NO
--
COMPOUND: COCCn1c(C)c(C)s/c1=N\C(=O)C1C(C)(C)C1(C)C
LABEL_CLASS: NO
--
COMPOUND: Nc1nc(-c2ccco2)c2cnn(Cc3ccccc3F)c2n1
LABEL_CLASS: NO
--
COMPOUND: N[C@](CC1c2ccccc2Oc2ccccc21)(C(=O)O)[C@H]1C[C@@H]1C(=O)O
LABEL_CLASS: NO
--
COMPOUND: CCCCCCNC(=O)Nc1ccc(S(=O)(=O)Nc2ccc(CCNC[C@H](O)COc3ccc(O)cc3)cc2)cc1
LABEL_CLASS: YES
--
COMPOUND: O=C(NCCNCC(O)COc1ccc(O)cc1)N1CCOCC1.O=C(NCCNCC(O)COc1ccc(O)cc1)N1CCOCC1.O=C(O)/C=C/C(=O)O (configuration not stated) [XAMOTEROL FUMARATE]
LABEL_CLASS: NO
--
COMPOUND: C[C@H](NC(=O)CNC(=O)c1cccc(Cl)c1)c1ccccc1
LABEL_CLASS: YES
--
COMPOUND: COc1cc2nc(N3CCN(C(=O)c4ccco4)CC3)nc(N)c2cc1OC.Cl [PRAZOSIN HYDROCHLORIDE]
LABEL_CLASS: NO
--
COMPOUND: O=C(O)CCC/C=C\CC1C(O)CC(O)C1/C=C/C(O)COc1cccc(Cl)c1 (configuration not stated)
LABEL_CLASS: NO
--
COMPOUND: CCc1nn2c(C)cc(C)nc2c1Cc1ccc(-c2nnc(C3CCNCC3)o2)cc1
LABEL_CLASS: NO
--
COMPOUND: CN1C[C@H](C(=O)N[C@]2(C)O[C@@]3(O)[C@@H]4CCCN4C(=O)[C@H](Cc4ccccc4)N3C2=O)C[C@@H]2c3cccc4[nH]cc(c34)C[C@H]21.CS(=O)(=O)O [DIHYDROERGOTAMINE MESYLATE]
LABEL_CLASS: YES
--
COMPOUND: C=CCN1C[C@H](C(=O)N(CCCN(C)C)C(=O)NCC)C[C@@H]2c3cccc4[nH]cc(c34)C[C@H]21
LABEL_CLASS: NO
--
COMPOUND: O=c1ccc2ccc(OCCCCN3CCN(c4cccc5sccc45)CC3)cc2[nH]1
LABEL_CLASS: NO

Entry source: ChEMBL document CHEMBL5058577
